Please respond with reported zone score, S. aureus ATCC 29213 for every item in the list.
Tested on: S. aureus (ATCC 29213)
Assay: Zone of inhibition screen, 96 well agar array format
Format: cell-based
Parameters: scale not given here
Conditions: zone of inhibition relative to 1 mg/ml p-chlorobiphenylvancomycin

Molecule: CC1OC(OC2C(Oc3c4cc5cc3Oc3ccc(cc3Cl)C(O)C3NC(=O)C(NC(=O)C5NC(=O)C(CC(N)=O)NC(=O)C(NC(=O)c5c[nH]c(=O)[nH]c5=O)C(O)c5ccc(c(Cl)c5)O4)c4ccc(O)c(c4)-c4c(O)cc(O)cc4C(C(=O)O)NC3=O)OC(CO)C(O)C2O)CC(C)(NCc2ccc(-c3ccc(Cl)cc3)cc2)C1O (stereo not drawn) [Compound 208]
Target Or Test System: S. aureus (ATCC 29213)
zone score, S. aureus ATCC 29213: 2
//
Molecule: CC1OC(OC2C(Oc3c4cc5cc3Oc3ccc(cc3Cl)C(O)C(NC(=O)C(F)(F)C(F)(F)C(F)(F)F)C(=O)NC(CC(N)=O)C(=O)NC5C(=O)NC3C(=O)NC(C(=O)NC(C(=O)O)c5cc(O)cc(O)c5-c5cc3ccc5O)C(O)c3ccc(c(Cl)c3)O4)OC(CO)C(O)C2O)CC(C)(NCc2ccc(-c3ccc(Cl)cc3)cc2)C1O (stereo not drawn) [Compound 290]
Target Or Test System: S. aureus (ATCC 29213)
zone score, S. aureus ATCC 29213: 2

Now look at this one.
Inquiry: Need zone score, S. aureus ATCC 29213, item CC(NC(N)=O)C(=O)NC1C(=O)NC(CC(N)=O)C(=O)NC2C(=O)NC3C(=O)NC(C(=O)NC(C(=O)O)c4cc(O)cc(O)c4-c4cc3ccc4O)C(O)c3ccc(c(Cl)c3)Oc3cc2cc(c3OC2OC(CO)C(O)C(O)C2OC2CC(C)(NCc3ccc(-c4ccc(Cl)cc4)cc3)C(O)C(C)O2)Oc2ccc(cc2Cl)C1O (mixture of isomers) [Compound 206]
Reply text: 2

* * *

System: E. faecium CL 4931
Test: MIC determination in BHI media, OD600
Assay type: cell-based
Conditions: BHI + 0.1% casamino acids, 18 hours at 37° C., ≧90% OD600 inhibition
Observed Property: MIC E. faecium CL 4931

Some entries whose results are on file:
Compound: CC(O)C(N)C(=O)NC1C(=O)NC(CC(N)=O)C(=O)NC2C(=O)NC3C(=O)NC(C(=O)NC(C(=O)O)c4cc(O)cc(O)c4-c4cc3ccc4O)C(O)c3ccc(c(Cl)c3)Oc3cc2cc(c3OC2OC(CO)C(O)C(O)C2OC2CC(C)(NCc3ccc(-c4ccc(Cl)cc4)cc3)C(O)C(C)O2)Oc2ccc(cc2Cl)C1O (stereo not drawn) [Compound 64]
Result: 25 µg/mL
//
Compound: CC1OC(OC2C(Oc3c4cc5cc3Oc3ccc(cc3Cl)C(O)C3NC(=O)C(NC(=O)C5NC(=O)C(CC(N)=O)NC(=O)C(NC(=O)CN5CCNCC5)C(O)c5ccc(c(Cl)c5)O4)c4ccc(O)c(c4)-c4c(O)cc(O)cc4C(C(=O)O)NC3=O)OC(CO)C(O)C2O)CC(C)(NCc2ccc(-c3ccc(Cl)cc3)cc2)C1O (stereo not drawn) [Compound 34]
Result: 25 µg/mL
//
Compound: CNC(COC(C)(C)C)C(=O)NC1C(=O)NC(CC(N)=O)C(=O)NC2C(=O)NC3C(=O)NC(C(=O)NC(C(=O)O)c4cc(O)cc(O)c4-c4cc3ccc4O)C(O)c3ccc(c(Cl)c3)Oc3cc2cc(c3OC2OC(CO)C(O)C(O)C2OC2CC(C)(NCc3ccc(-c4ccc(Cl)cc4)cc3)C(O)C(C)O2)Oc2ccc(cc2Cl)C1O (stereo not drawn) [Compound 526]
Result: 25 µg/mL

// batch mode: one MIC E. faecium CL 4931 value per listed entry
1. CC(C)OCC(N)C(=O)NC1C(=O)NC(CC(N)=O)C(=O)NC2C(=O)NC3C(=O)NC(C(=O)NC(C(=O)O)c4cc(O)cc(O)c4-c4cc3ccc4O)C(O)c3ccc(c(Cl)c3)Oc3cc2cc(c3OC2OC(CO)C(O)C(O)C2OC2CC(C)(NCc3ccc(-c4ccc(Cl)cc4)cc3)C(O)C(C)O2)Oc2ccc(cc2Cl)C1O (stereo not drawn) [Compound 529]
2. CC1OC(OC2C(Oc3c4cc5cc3Oc3ccc(cc3Cl)C(O)C3NC(=O)C(NC(=O)C5NC(=O)C(CC(N)=O)NC(=O)C(NC(=O)C(N)CC[S+](C)[O-])C(O)c5ccc(c(Cl)c5)O4)c4ccc(O)c(c4)-c4c(O)cc(O)cc4C(C(=O)O)NC3=O)OC(CO)C(O)C2O)CC(C)(NCc2ccc(-c3ccc(Cl)cc3)cc2)C1O (stereo not drawn) [Compound 81]
3. CC1OC(OC2C(Oc3c4cc5cc3Oc3ccc(cc3Cl)C(O)C3NC(=O)C(NC(=O)C5NC(=O)C(CC(N)=O)NC(=O)C(N)C(O)c5ccc(c(Cl)c5)O4)c4ccc(O)c(c4)-c4c(O)cc(O)cc4C(C(=O)O)NC3=O)OC(CO)C(O)C2O)CC(C)(NCc2ccc(-c3ccc(Cl)cc3)cc2)C1O (stereo not drawn) [Compound 522, Des-Lecyl Vancomycin, reference compound]

Reply text:
1. 25 µg/mL
2. 25 µg/mL
3. > 25 µg/mL

* * *

Could you please report measured zone score, S. aureus ATCC 29213 for the items listed next?
Tested on: S. aureus (ATCC 29213)
Assay: Zone of inhibition screen, 96 well agar array format
Type: cell-based
Design: scale not given here
Details: zone of inhibition relative to 1 mg/ml p-chlorobiphenylvancomycin
One number for each entry.

Compound: CC1OC(OC2C(Oc3c4cc5cc3Oc3ccc(cc3Cl)C(O)C3NC(=O)C(NC(=O)C5NC(=O)C(CC(N)=O)NC(=O)C(NC(=O)c5ccco5)C(O)c5ccc(c(Cl)c5)O4)c4ccc(O)c(c4)-c4c(O)cc(O)cc4C(C(=O)O)NC3=O)OC(CO)C(O)C2O)CC(C)(NCc2ccc(-c3ccc(Cl)cc3)cc2)C1O (stereo not drawn) [Compound 240]
zone score, S. aureus ATCC 29213: 2

Parameters: items (list). Returns: zone score, S. aureus ATCC 29213 for each item.
1. CC(=O)CCCCC(=O)NC1C(=O)NC(CC(N)=O)C(=O)NC2C(=O)NC3C(=O)NC(C(=O)NC(C(=O)O)c4cc(O)cc(O)c4-c4cc3ccc4O)C(O)c3ccc(c(Cl)c3)Oc3cc2cc(c3OC2OC(CO)C(O)C(O)C2OC2CC(C)(NCc3ccc(-c4ccc(Cl)cc4)cc3)C(O)C(C)O2)Oc2ccc(cc2Cl)C1O (stereo not drawn) [Compound 278]
2. CC=C(N)C(=O)NC1C(=O)NC(CC(N)=O)C(=O)NC2C(=O)NC3C(=O)NC(C(=O)NC(C(=O)O)c4cc(O)cc(O)c4-c4cc3ccc4O)C(O)c3ccc(c(Cl)c3)Oc3cc2cc(c3OC2OC(CO)C(O)C(O)C2OC2CC(C)(NCc3ccc(-c4ccc(Cl)cc4)cc3)C(O)C(C)O2)Oc2ccc(cc2Cl)C1O (stereo not drawn) [Compound 219]

Reply text:
2
2

* * *

Tested on: E. Faecalis CL 4877
Test: MIC determination in BHI media, OD600
Assay type: cell-based
Conditions: BHI + 0.1% casamino acids, 18 hours at 37° C., ≧90% OD600 inhibition
Observed Property: MIC E. faecalis CL 4877 (µg/mL)
Give bare numbers, in µg/mL.

Compound: CNC(C(=O)NC1C(=O)NC(CC(N)=O)C(=O)NC2C(=O)NC3C(=O)NC(C(=O)NC(C(=O)O)c4cc(O)cc(O)c4-c4cc3ccc4O)C(O)c3ccc(c(Cl)c3)Oc3cc2cc(c3OC2OC(CO)C(O)C(O)C2OC2CC(C)(NCc3ccc(-c4ccc(Cl)cc4)cc3)C(O)C(C)O2)Oc2ccc(cc2Cl)C1O)C(C)C (stereo not shown)
Output Unit: µg/mL
Measured Number: 25

Compound: CC1OC(OC2C(Oc3c4cc5cc3Oc3ccc(cc3Cl)C(O)C3NC(=O)C(NC(=O)C5NC(=O)C(CC(N)=O)NC(=O)C(NC(=O)C(N)CCCCNC(=O)CCCCC5SCC6NC(=O)NC65)C(O)c5ccc(c(Cl)c5)O4)c4ccc(O)c(c4)-c4c(O)cc(O)cc4C(C(=O)O)NC3=O)OC(CO)C(O)C2O)CC(C)(NCc2ccc(-c3ccc(Cl)cc3)cc2)C1O (stereo not shown)
Output Unit: µg/mL
Measured Number: 25

Compound: C[C@H]1O[C@H](O[C@H]2[C@H](Oc3c4cc5cc3Oc3ccc(cc3Cl)[C@@H](O)[C@@H](NC(=O)[C@H](N)COC(C)(C)C)C(=O)N[C@@H](CC(N)=O)C(=O)N[C@H]5C(=O)N[C@H]3C(=O)N[C@H](C(=O)N[C@@H](C(=O)O)c5cc(O)cc(O)c5-c5cc3ccc5O)[C@H](O)c3ccc(c(Cl)c3)O4)O[C@H](CO)[C@@H](O)[C@@H]2O)C[C@@](C)(NCc2ccc(-c3ccc(Cl)cc3)cc2)[C@H]1O
Output Unit: µg/mL
Measured Number: 3.91

Inquiry: Could you tell me which MIC E. faecalis CL 4877 is on file for CC1OC(OC2C(Oc3c4cc5cc3Oc3ccc(cc3Cl)C(O)C3NC(=O)C(NC(=O)C5NC(=O)C(CC(N)=O)NC(=O)C(NC(=O)C(N)CC[S+](C)[O-])C(O)c5ccc(c(Cl)c5)O4)c4ccc(O)c(c4)-c4c(O)cc(O)cc4C(C(=O)O)NC3=O)OC(CO)C(O)C2O)CC(C)(NCc2ccc(-c3ccc(Cl)cc3)cc2)C1O (stereo not shown) ?
Reply text: 25

Where do these numbers come from? They come from patent US6518243B1.
